- ASSAY PROTOCOL: in vitro
- MEASUREMENT CONTEXT: SD, HW or BN, rat, plasma
Quick reference: fraction unbound at 5 h of the listed items.
METRIC NAME: fraction unbound at 5 h

>  <COMPOUND>
CC(Cc1ccccn1)N1C(=O)c2ccccc2C1C(=O)NCc1ccc(OC(F)(F)F)cc1 (centres undefined)

>  <RECORDED VALUE>
0.0366

$$$$
>  <COMPOUND>
CNC(=O)CCCN(C)C(=O)c1ccc2c(c1)c1c(n2C)CC[C@@H](C2CCOCC2)C1

>  <RECORDED VALUE>
0.0146

$$$$
>  <COMPOUND>
CCN1CCC[C@H]1CNC(=O)c1c(O)c(Cl)cc(Cl)c1OC [RACLOPRIDE]

>  <RECORDED VALUE>
0.557

$$$$
>  <COMPOUND>
O=P(c1ccccc1)(c1ccccc1)N(Cc1ccccn1)c1cccnc1

>  <RECORDED VALUE>
0.145

$$$$
>  <COMPOUND>
Cc1cc(N2CCC[C@@H]2C(=O)NCCc2ccc3c(c2)OCO3)nc(-n2ccnc2)n1

>  <RECORDED VALUE>
0.22

$$$$
>  <COMPOUND>
CCOc1cc(CN2CCC(Nc3nc4cc(S(N)(=O)=O)ccc4o3)CC2)cc(OCC)c1N

>  <RECORDED VALUE>
0.11

$$$$
>  <COMPOUND>
CCCc1nn(C)c2c(=O)[nH]c(-c3cc(S(=O)(=O)N4CCN(C)CC4)ccc3OCC)nc12

>  <RECORDED VALUE>
0.0988

$$$$
>  <COMPOUND>
CCC[C@H](CO)Nc1nc(S[C@@H](C)c2cccc(C#N)c2)nc2[nH]c(=O)sc12

>  <RECORDED VALUE>
0.0008

$$$$
>  <COMPOUND>
CCN(CC)S(=O)(=O)c1ccc(-c2cc(C(F)(F)F)ccc2OCC(=O)O)cc1

>  <RECORDED VALUE>
0.0179

$$$$

---

- ASSAY PROTOCOL: physchem
- MEASUREMENT CONTEXT: octan-1-ol/water, pH 7.4, LogD7.4
Categorize each record by its logD using small value = under 2, mid value = from 2 up to 3, large value = 3 and over

>  <MOLECULE>
Cc1ccsc1C(=CCCN1CCC[C@@H](C(=O)O)C1)c1sccc1C

>  <CATEGORY>
small value

$$$$
>  <MOLECULE>
N=C(N)Nc1ccc(Cl)c(Cl)c1

>  <CATEGORY>
small value

$$$$
>  <MOLECULE>
O=C(Oc1ccccc1O)c1cccc2ccccc12

>  <CATEGORY>
large value

$$$$
>  <MOLECULE>
CC(NC(=O)C1(N)CCN(c2ncnc3[nH]ccc23)CC1)c1ccc(Cl)cc1 (stereo not given)

>  <CATEGORY>
mid value

$$$$
>  <MOLECULE>
CCCSc1nc(NC[C@H]2CC[C@H](C(=O)O)CC2)ccc1C(=O)NC1CCCCC1

>  <CATEGORY>
mid value

$$$$
>  <MOLECULE>
COCCOCCOc1ccc(-c2cc(C(N)=O)c(NC(N)=O)s2)cc1

>  <CATEGORY>
mid value

$$$$
>  <MOLECULE>
C[C@@H](O)[C@@H](CO)Nc1nc(SCc2cccc(F)c2F)nc2nc(N)sc12

>  <CATEGORY>
mid value

$$$$
>  <MOLECULE>
CN(C)c1ccc(S(=O)(=O)NC(=O)N2CCC(N3CCC(Oc4ccc(Cl)c(Cl)c4)CC3)CC2)cc1

>  <CATEGORY>
small value

$$$$
>  <MOLECULE>
COC(=O)c1nc2c(N[C@H](C)CO)nc(SCc3cccc(F)c3F)nc2[nH]c1=O

>  <CATEGORY>
mid value

$$$$
>  <MOLECULE>
Cc1ccc(S(=O)(=O)Nc2ccc(/C=C/C(=O)Nc3ccccc3N)cc2)cc1

>  <CATEGORY>
mid value

$$$$
>  <MOLECULE>
COCCOc1nc(N)c2[nH]c(=O)n(Cc3ccccc3)c2n1

>  <CATEGORY>
mid value

$$$$
>  <MOLECULE>
NC(=O)Nc1sc(-c2ccccc2)cc1C(N)=O

>  <CATEGORY>
mid value

$$$$
>  <MOLECULE>
CNc1ncc(C(=O)c2ccccc2)s1

>  <CATEGORY>
mid value

$$$$
>  <MOLECULE>
Clc1ccc(C2(c3ccc(-c4cn[nH]c4)cc3)CCNCC2)cc1

>  <CATEGORY>
small value

$$$$
>  <MOLECULE>
Cc1nc(Cl)c(Cl)n1Cc1sc2c(c1C(=O)N1CC[C@@H](O)C1)c(=O)n(C)c(=O)n2CC(C)C

>  <CATEGORY>
small value

$$$$
>  <MOLECULE>
CC(=O)O[C@@]12CO[C@@H]1C[C@H](O)[C@@]1(C)C(=O)[C@H](O)C3=C(C)[C@@H](OC(=O)[C@H](O)[C@@H](NC(=O)OC(C)(C)C)c4ccccc4)C[C@@](O)([C@@H](OC(=O)c4ccccc4)[C@H]21)C3(C)C

>  <CATEGORY>
large value

$$$$
>  <MOLECULE>
CCN1CCOc2cc(COc3ccccc3)cnc21

>  <CATEGORY>
large value

$$$$
>  <MOLECULE>
CCC(C)(C)C[C@H](c1ccc(C(=O)O)c(Oc2cccc(Cl)c2)c1)N1CCC[C@H](n2cc(C)c(=O)[nH]c2=O)C1

>  <CATEGORY>
small value

$$$$
>  <MOLECULE>
COc1ccc2ncc(F)c(CCN3CCC(NCc4ccc5c(n4)NC(=O)CO5)CC3)c2n1

>  <CATEGORY>
small value

$$$$
>  <MOLECULE>
CC(C)C(NC(=O)Cn1c(-c2cc(F)cc(F)c2)ncc(N)c1=O)C(=O)C(F)(F)F (stereo not given)

>  <CATEGORY>
small value

$$$$
>  <MOLECULE>
N#Cc1ccc(C(c2ccc(C#N)cc2)n2cncn2)cc1

>  <CATEGORY>
small value

$$$$
>  <MOLECULE>
Cc1ncc(-c2ccnc(Nc3ccc(N(C)C)cc3)n2)n1C(C)C

>  <CATEGORY>
large value

$$$$
>  <MOLECULE>
CN1CC(=O)N2[C@H](c3ccc4c(c3)OCO4)c3[nH]c4ccccc4c3C[C@@H]2C1=O

>  <CATEGORY>
mid value

$$$$
>  <MOLECULE>
COc1cc(OC2CCNCC2)ccc1Nc1ncc(Cl)c(-c2cnc3ccccn23)n1

>  <CATEGORY>
small value

$$$$
>  <MOLECULE>
CCCc1c(OCCCSc2ccc(CC(=O)O)cc2Cl)ccc2c(CC)noc12

>  <CATEGORY>
large value

$$$$
>  <MOLECULE>
CN(C)c1ccnc2sc(C(=O)NCc3ccccc3)c(N)c12

>  <CATEGORY>
large value

$$$$
>  <MOLECULE>
Cc1nc2ncnn2c(O)c1CCOC(=O)c1ccccc1F

>  <CATEGORY>
small value

$$$$
>  <MOLECULE>
COc1ccc(Cn2cc3c(=O)n(C)c(=O)n(CC(C)C)c3c2)cc1

>  <CATEGORY>
large value

$$$$
>  <MOLECULE>
CCc1cc(O)c(Oc2ccc(C(N)=O)cc2F)cc1F

>  <CATEGORY>
mid value

$$$$
>  <MOLECULE>
CC(=O)NC(C)c1ccc(Nc2ncc3cc(-c4ccncc4)ccc3n2)cc1 (stereo not given)

>  <CATEGORY>
large value

$$$$
>  <MOLECULE>
N=C(N)NC(=O)c1nc(Cl)c(NCc2ccncc2)nc1N

>  <CATEGORY>
small value

$$$$
>  <MOLECULE>
Nc1cc2n[nH]c(=O)n2c2cc(-c3cccs3)ccc12

>  <CATEGORY>
large value

$$$$
>  <MOLECULE>
CCCN(CCC)C(=O)c1cccc(C(=O)N[C@@H](Cc2ccccc2)[C@H](O)CNCc2cccc(OC)c2)c1

>  <CATEGORY>
mid value

$$$$
>  <MOLECULE>
Cn1c(=O)c2[nH]c(-c3cccnc3)nc2n(C)c1=O

>  <CATEGORY>
small value

$$$$
>  <MOLECULE>
Cc1ccccc1-c1c(C(=O)O)n(CCCOc2cccc3ccccc23)c2ccccc12

>  <CATEGORY>
large value

$$$$

---

- ASSAY PROTOCOL: physchem
- MEASUREMENT CONTEXT: pH 7.4 buffer
METRIC NAME: solubility thermodynamic (µM)

>  <COMPOUND>
COc1ccc(N2CCN(C(=O)[C@@H]3CCCC[C@H]3C(=O)NCC#N)CC2)cc1

>  <RECORDED VALUE>
389

$$$$
>  <COMPOUND>
CCOc1ccc(NCC(=O)c2ccc(C)cc2)cc1

>  <RECORDED VALUE>
1.2

$$$$
>  <COMPOUND>
Cn1c(=O)c(Oc2ccc(F)cc2F)cc2cnc(NC3CCOCC3)nc21

>  <RECORDED VALUE>
20.4

$$$$
>  <COMPOUND>
COC1(c2cc(F)cc(OCc3ccc4c(ccc(=O)n4C)c3)c2)CCOCC1

>  <RECORDED VALUE>
3.2

$$$$
>  <COMPOUND>
CCn1c(=O)ccc2cc(COc3cc(F)cc(C4(OC)CCOCC4)c3)ccc21

>  <RECORDED VALUE>
1.7

$$$$
>  <COMPOUND>
COc1ccc(NC(=O)c2nnc(Nc3ccccc3F)o2)cn1

>  <RECORDED VALUE>
3.3

$$$$
>  <COMPOUND>
O=C(O)[C@H](Cc1ccc(F)cc1)N1CCC(CN2CCC(Oc3ccc(Cl)c(Cl)c3)CC2)CC1

>  <RECORDED VALUE>
72.4

$$$$
>  <COMPOUND>
Cc1ncc(-c2nc(Nc3ccc(C(=O)NC4CCN(C)CC4)c(F)c3)ncc2F)n1C(C)C

>  <RECORDED VALUE>
275

$$$$
>  <COMPOUND>
CC(=O)Nc1ccc(C(=O)Nc2ccccc2N)cc1

>  <RECORDED VALUE>
631

$$$$
>  <COMPOUND>
COCCOc1cc2nncc(Nc3cc(O)c(Cl)cc3F)c2cc1OC

>  <RECORDED VALUE>
0.1

$$$$
>  <COMPOUND>
CC1(C)SCCN(S(=O)(=O)c2ccc(Oc3ccncc3)cc2)[C@H]1C(=O)NO

>  <RECORDED VALUE>
69.2

$$$$
>  <COMPOUND>
Cc1cc(CN2Cc3ccccc3C[C@H]2C(=O)Nc2ccc(Cl)cc2Cl)ccc1OCC(=O)O

>  <RECORDED VALUE>
347

$$$$
>  <COMPOUND>
Cc1ncc(-c2ccnc(Nc3ccc(S(=O)(=O)CCCN4CCOCC4)cc3)n2)n1C(C)C

>  <RECORDED VALUE>
851

$$$$
>  <COMPOUND>
CC(C)(C)c1ccc(C(O)CCCN2CCC(C(O)(c3ccccc3)c3ccccc3)CC2)cc1 (centres undefined)

>  <RECORDED VALUE>
5.4

$$$$
>  <COMPOUND>
N#Cc1ccc(C[C@@H](C(=O)O)N2CCC(CN3CCC(Oc4ccc(Cl)c(Cl)c4)CC3)CC2)cc1

>  <RECORDED VALUE>
53.7

$$$$
>  <COMPOUND>
COc1cc(N2CCN(C(=O)[C@@H]3CCCC[C@H]3C(=O)NC3(C#N)CC3)[C@H](C)C2)ccc1C1CC1

>  <RECORDED VALUE>
204

$$$$
>  <COMPOUND>
Cc1cc(O)nc(SCC(=O)c2ccccc2)n1

>  <RECORDED VALUE>
708

$$$$
>  <COMPOUND>
CO[C@@H]1CN(Cc2ccc(C(F)(F)F)cc2)CC[C@@H]1N(C)C(=O)Cc1ccc(-n2cnnn2)cc1

>  <RECORDED VALUE>
75.9

$$$$
>  <COMPOUND>
Clc1ccc2c(c1Nc1ccnc(Nc3cc(N4CCOCC4)cc(N4CCOCC4)c3)n1)OCO2

>  <RECORDED VALUE>
30.9

$$$$
